assayed target: T1, human A-beta(1-40) peptide, monomeric (BAM) (human, biotin at the C-terminus in capture ELISA, SPR and TR-FRET; not biotinylated where coated directly (Example 7))
T1 construct: synthetic peptide (Anaspec), TFA/HFIP treated to give monomer; also called monomeric A-beta
measurement description: BAM ELISA
# EC50 annotations
Write it as a number; the unit nM goes unstated.

binder: ABII35G2 (VHH) VHH: EVQLVESGGGLVQAGGSLRLSCVASGRTFSNYGMGWFRQAPGKDREFVAAISRSGGTTYYEDDVKGRFTISRDNAKNSVYLQMNSLKPEDTAVYYCAARPSYVAVNIAASYNNWGQGTQVTVSS
output unit: nM
EC50: 10.7

We now examine a further binder.
Return reported EC50; argument: Fab fragment of monoclonal antibody m266 (Fab, V domains shown, also called Fab266; m266Fab) VH: EVKLVESGGGLVQPGGSLKLSCAVSGFTFSRYSMSWVRQTPEKRLELVAQINSVGNSTYYPDTVKGRFTISRDNAEYTLSLQMSGLRSDDTATYYCASGDYWGQGTTLTVSS VL: DVVMTQTPLSLPVSLGDQASISCRSSQSLIYSDGNAYLHWFLQKPGQSPKLLIYKVSNRFSGVPDRFSGSGSGTDFTLKISRVETEDLGVYFCSQSTHVPWTFGGGTKLEIK
1.8
